Tested on: human TGF-beta1 mRNA
testMethodNotes: Antisense inhibition of human TGF-beta1 mRNA in HuVEC cells, single 10 nM dose, Lipofectamine 2000 (Example 2)
Type: cell-based
particulars: 10 nM oligonucleotide, HuVEC, relative to untreated control cells; gapmers targeted to SEQ ID NO: 1
Protocol: Antisense oligonucleotides targeted to a TGF-beta1 nucleic acid were tested for their effects on TGF-beta1 mRNA in vitro. […] After a recovery period of approximately 24 hours, RNA was isolated from the cells and TGF-beta1 mRNA levels were measured by quantitative real-time PCR. TGF-beta1 mRNA levels were adjusted according to total RNA content, as measured by RIBOGREEN®. […]
In the oligonucleotide strings, read from the 5' end, every base follows the letter of its sugar. An asterisk marks phosphorothioate; unmarked linkages are phosphodiester. Other units and linkages are bracketed, terminal groups are in braces. A string of capitals states the bases alone. e = 2'-O-(2-methoxyethyl) (MOE); [5mC] = 5-methylcytosine; d = 2'-deoxy (DNA)
Recorded % inhibition, one value per entry.

Worked examples, 3 substances total:
INSERT INTO assay_data (substance, recordedvalue) VALUES
  ('413987 (antisense eA*eG*dG*dT*d[5mC]*d[5mC]*d[5mC]*d[5mC]*dG*d[5mC]*dG*d[5mC]*d[5mC]*dT*d[5mC]*e[5mC]*eG*eG*e[5mC]*eT) [compound 413987]', '71%'),
  ('413994 (antisense e[5mC]*eG*dT*d[5mC]*d[5mC]*d[5mC]*d[5mC]*dG*dG*d[5mC]*dG*dG*d[5mC]*dA*dA*eA*eG*eG*eG*eA) [compound 413994]', '67%'),
  ('413999 (antisense eG*eG*d[5mC]*dT*d[5mC]*dA*dG*dG*dA*dG*dA*d[5mC]*dA*dG*dG*e[5mC]*e[5mC]*eG*eG*eG) [compound 413999]', '72%');

Tell me its % inhibition given 413976 (antisense e[5mC]*eA*dG*d[5mC]*dG*dG*d[5mC]*dA*dA*d[5mC]*dG*dG*dA*dA*dA*eA*eG*eT*e[5mC]*eT) [compound 413976] as the entry.
72%

Tell me its % inhibition given 414023 (antisense eT*e[5mC]*dG*dG*dG*d[5mC]*dT*d[5mC]*d[5mC]*dG*dG*dT*dT*d[5mC]*dT*eG*e[5mC]*eA*e[5mC]*eT) [compound 414023] as the entry.
78%

Tell me its % inhibition given 413984 (antisense e[5mC]*e[5mC]*dG*d[5mC]*dG*d[5mC]*d[5mC]*dT*d[5mC]*d[5mC]*dG*dG*d[5mC]*dT*d[5mC]*e[5mC]*e[5mC]*eA*eG*e[5mC]) [compound 413984] as the entry.
71%

Tell me its % inhibition given 413988 (antisense eA*eA*dG*dT*d[5mC]*d[5mC]*dT*dG*d[5mC]*d[5mC]*dT*d[5mC]*d[5mC]*dT*d[5mC]*eG*e[5mC]*eG*eG*eG) [compound 413988] as the entry.
63%

Tell me its % inhibition given 414026 (antisense e[5mC]*e[5mC]*dT*d[5mC]*dA*dG*dG*d[5mC]*dT*d[5mC]*dG*dG*dG*d[5mC]*dT*e[5mC]*e[5mC]*eG*eG*eT) [compound 414026] as the entry.
82%

Tell me its % inhibition given 414025 (antisense eA*eG*dG*d[5mC]*dT*d[5mC]*dG*dG*dG*d[5mC]*dT*d[5mC]*d[5mC]*dG*dG*eT*eT*e[5mC]*eT*eG) [compound 414025] as the entry.
79%

Tell me its % inhibition given 414020 (antisense eG*eG*dA*dG*dG*d[5mC]*d[5mC]*d[5mC]*d[5mC]*dG*d[5mC]*d[5mC]*d[5mC]*d[5mC]*dT*eG*e[5mC]*eA*eG*eG) [compound 414020] as the entry.
0%

Tell me its % inhibition given 413978 (antisense e[5mC]*eT*d[5mC]*d[5mC]*d[5mC]*dA*dG*d[5mC]*dG*dG*d[5mC]*dA*dA*d[5mC]*dG*eG*eA*eA*eA*eA) [compound 413978] as the entry.
67%
